- Tested on: Ustilago maydis
- procedure-details: Antifungal activity against Ustilago maydis assessed as inhibition of radial growth on potato dextrose
- Type: functional, organism-based
- conditions: Mycosarcoma maydis
measurement-kind: EC50 (µg/mL)
Respond numerically; units are µg/mL and should not be typed.

## Input Report measured EC50; entry is COc1ccc(COCC(Cn2cncn2)c2ccc(Cl)cc2Cl)cc1 (racemic)
## Output 0.07

## Input Report measured EC50; entry is C=C(Cn1cncn1)c1ccc(Cl)cc1Cl
## Output 0.8

## Input Report measured EC50; entry is C#CCOCC(Cn1cncn1)c1ccc(Cl)cc1Cl (stereo not drawn)
## Output 0.5

## Input Report measured EC50; entry is OCCCOCC(Cn1cncn1)c1ccc(Cl)cc1Cl (racemic)
## Output 1

## Input Report measured EC50; entry is Clc1ccc(C(COC/C=C/c2ccccc2)Cn2cncn2)c(Cl)c1 (racemic)
## Output 0.1

## Input Report measured EC50; entry is Clc1ccc(C(COCc2cccc(Oc3ccccc3)c2)Cn2cncn2)c(Cl)c1 (racemic)
## Output 0.16

## Input Report measured EC50; entry is CC(C)(C)c1ccc(COCC(Cn2cncn2)c2ccc(Cl)cc2Cl)cc1 (racemic)
## Output 0.1

## Input Report measured EC50; entry is C=CCOC[C@H](Cn1cncn1)c1ccc(Cl)cc1Cl
## Output 0.22

## Input Report measured EC50; entry is Clc1ccc(C(COCc2ccc(OCc3ccccc3)cc2)Cn2cncn2)c(Cl)c1 (racemic)
## Output 0.14

## Input Report measured EC50; entry is Clc1ccc(C(COCc2ccccc2)Cn2cncn2)c(Cl)c1 (racemic)
## Output 0.14

## Input Report measured EC50; entry is FC(F)C(F)(F)OCC(Cn1cncn1)c1ccc(Cl)cc1Cl (stereo not drawn)
## Output 0.25

## Input Report measured EC50; entry is N#CCCOCC(Cn1cncn1)c1ccc(Cl)cc1Cl (racemic)
## Output 4

====

- Test system: Bipolaris maydis
- procedure-details: Antifungal activity against Cochliobolus heterostrophus assessed as inhibition of radial growth on potato dextrose
- Type: functional, organism-based
// NB: equality with 0.2 µg/mL counts as false (0); only EC50 strictly below is true (1)

## Input In plain terms, does C=C(C)COCC(Cn1cncn1)c1ccc(Cl)cc1Cl (racemic) come in under 0.2 µg/mL for EC50?
## Output true (1)

## Input In plain terms, does FC(F)C(F)(F)OCC(Cn1cncn1)c1ccc(Cl)cc1Cl (stereo not given) come in under 0.2 µg/mL for EC50?
## Output true (1)

## Input In plain terms, does Clc1ccc(C(COCc2ccc(-c3ccccc3)cc2)Cn2cncn2)c(Cl)c1 (racemic) come in under 0.2 µg/mL for EC50?
## Output true (1)

## Input In plain terms, does CC(C)(C)c1ccc(COCC(Cn2cncn2)c2ccc(Cl)cc2Cl)cc1 (racemic) come in under 0.2 µg/mL for EC50?
## Output false (0)

## Input In plain terms, does Clc1ccc([C@H](COCc2ccccc2)Cn2cncn2)c(Cl)c1 come in under 0.2 µg/mL for EC50?
## Output false (0)

## Input In plain terms, does CC(C)=CCOCC(Cn1cncn1)c1ccc(Cl)cc1Cl (racemic) come in under 0.2 µg/mL for EC50?
## Output true (1)

## Input In plain terms, does N#CCCOCC(Cn1cncn1)c1ccc(Cl)cc1Cl (racemic) come in under 0.2 µg/mL for EC50?
## Output false (0)

## Input In plain terms, does Clc1ccc(C(COCc2ccccc2)Cn2cncn2)c(Cl)c1 (racemic) come in under 0.2 µg/mL for EC50?
## Output true (1)

## Input In plain terms, does Clc1ccc(C(COCc2ccc3ccccc3c2)Cn2cncn2)c(Cl)c1 (racemic) come in under 0.2 µg/mL for EC50?
## Output true (1)

## Input In plain terms, does OCCCOCC(Cn1cncn1)c1ccc(Cl)cc1Cl (racemic) come in under 0.2 µg/mL for EC50?
## Output false (0)
